// provenance: PubChem BioAssay (NCI)

- System: KM12 colon
- testProtocol: NCI-60 one-dose screen, 48 h (100 = growth as untreated, 0 = no growth, -100 = all killed)
- cond: 10 µM unless noted
Compounds without any hit were thinned out: in the full panel of roughly 83,000, 20% have a hit.
Could you label it met if measured growth is 30% or higher, and not met otherwise?

[[record]]
compound = "O=C(CN1CCN(c2cc3c(cc2F)c(=O)c(C(=O)N/N=C/c2ccccc2O)cn3C2CC2)CC1)N/N=C\\c1ccccc1O"
classlabel = "not met"

[[record]]
compound = "C/C=C(\\C)C(C(=O)NC1CCCCC1)N(C(=O)C1CCc2cc(F)ccc2O1)c1ccc(Cl)cc1 (stereo unspecified)"
classlabel = "met"

[[record]]
compound = "COc1cc2c(=O)n(C3CCCCCC3)c3c4cc[nH]c4ncc3c2cc1OC"
classlabel = "not met"

[[record]]
compound = "COc1ccc(C2C(C#N)=C(N)Oc3c2ccc2ccccc32)cc1 (stereo unspecified)"
classlabel = "not met"

[[record]]
compound = "CC(C)CC1NC(C)(C)CO1 (stereo unspecified)"
classlabel = "met"

[[record]]
compound = "CCN(CC)CCOc1ccc(Cl)c(C)c1"
classlabel = "met"

[[record]]
compound = "CCc1cnc(=S)n(-c2ccccc2)c1"
classlabel = "met"

[[record]]
compound = "COc1cc(/C=N\\NC(=O)CN2CCN(c3cc4c(cc3F)c(=O)c(C(=O)N/N=C/c3cc(OC)c(OC)c(OC)c3)cn4C3CC3)CC2)cc(OC)c1OC"
classlabel = "not met"

[[record]]
compound = "CN1C(=O)N(C)C2C1NN=c1s/c(=C\\c3cccnc3)c(=O)n12 (stereo unspecified)"
classlabel = "met"

[[record]]
compound = "COc1ccc(C2=Nn3c(nnc3-n3nc(C)cc3C)SC2)cc1"
classlabel = "not met"

[[record]]
compound = "Cc1ccc(NS(=O)(=O)c2cc(C)ccc2C)cc1"
classlabel = "not met"

[[record]]
compound = "COc1ccc(Nc2[nH]n3c(=O)cc(-c4ccccc4)nc3c2C(=O)Nc2ccc(C)cc2)c(OC)c1"
classlabel = "met"

[[record]]
compound = "O=c1cc/c(=N\\Nc2ccccc2)c(=O)/c1=N/Nc1ccccc1"
classlabel = "met"

[[record]]
compound = "CC(=O)Oc1csc(N(C(C)=O)c2cccc(C(F)(F)F)c2)n1"
classlabel = "met"

[[record]]
compound = "N=c1ccc2nc3ccc(N)cc3sc-2c1"
classlabel = "not met"

[[record]]
compound = "CCOC(=O)CN1/C(=N/c2sc3c(c2C(=O)OCC)CCN(C(=O)OCC)C3)SC(=O)/C1=C\\C(=O)OC"
classlabel = "met"

[[record]]
compound = "Cn1ncc2c(Sc3ccc(Cl)cc3)ncnc21"
classlabel = "met"

[[record]]
compound = "COc1ccc(-c2nc(/C=N/Nc3cc(C)nc4ccc(Cl)cc34)c(C)o2)cc1"
classlabel = "not met"

[[record]]
compound = "CC(C)(C)n1cc(-c2ccnc(NCCCNS(=O)(=O)c3cccc(F)c3)c2)c(-c2cccc(O)c2)n1"
classlabel = "not met"

[[record]]
compound = "Cc1cc(N/N=C/c2nc(-c3ccccc3)oc2C)c2cc(Cl)ccc2n1"
classlabel = "not met"

